Ref: the DeepSol protein solubility set

Assay: soluble on expression in E. coli; label from the status in PepcDB or PDB records
observable: soluble on expression in E. coli

Completed entries (count: 6):
{"columns": ["entry sequence", "observed value"],
 "data": [
  ["SRLMNEIRETRGLAYSVYSTFAPYQEKGPFEIGLQTKKEQAEQALQLTQKTLRDFVEQGPTEEELQAARQNIVGGFPLRIDSNQKILGYLGVIGFYDLPLTYLEDYVKAVEKVTVAQIRDAFKRRIDPAGMVTVVVGA", "not soluble"],
  ["MTECIFCHQLKANQLLTQSQYFKVVFDIDPIQKGHLLLISKDHYTSLTQLPKEGHYDLIDLQAALVAKLEQHLPISGVTSVSNDKELMDEGTHFHLHLIPRLTNDSFWEGITINQENWDLTPFLKHL", "not soluble"],
  ["MASKAVILAGGLGTRLSEETIVKPKPMVEIGGKPILWHIMKMYSVHGIKDFIICCGYKGYVIKEYFANYFLHMSDVTFHMAENRMEVHHKRVEPWNVTLVDTGDSSMTGGRLKRVAEYVKDDEAFLFTYGDGVADLDIKATIDFHKAHGKKATLTATFPPGRFGALDIQAGQVRSFQEKPKGDGAMINGGFFVLNPSVIDLIDNDATTWEQEPLMTLAQQGELMAFEHPGFWQPMDTLRDKVYLEGLWEKGKAPWKTWE", "soluble"],
  ["MGSDKIHHHHHHMMVLEQPLKSFFTSLSQSKSMNKLAKKWGLKLGASQVVAGVTISEAIEKVKELNEKGLSATLDHLGEFVEERTEAIEATDHCIQTLEQIASSGVNCNLSLKLTQLGLDIDQSFCLENMERIIKKAAELGIFVRIDMEDYGHCQQTLDILAELRKTYDNVGTVIQAYLFRALDDVRALEGIPLRLVKGAYKESPEVAYQEKEKIDENYFNMIKLHLDSGTYTAIASHDHQIIDRVKAYVKEKGISHSQFEFQMLYGFRTNLQEELVKEGYNVRIYVPFGIDWFGYFMRRLAERPQNVAFALRGFFSK", "not soluble"],
  ["MSLAASRRRNTYSQKVNMSNNVRADSLSLLLFTLRSGKLMAINLLKVSEIIPCPALTHLPESHPHVKGIATLRGSSLAVIDLSRAIGERPLADPDGGCLIVTDVSRSKQGLHVQAVSKIVHCLTTDIRPPPYGSSSKSFITGVTQVDGVLVQVLDIEKVIHGIAPAQIVVQSTELAKEDAEVLSKARILVVDDSQVALQQSIITLRNLGIECHTARSAREAIDVLLDLQGTARQINVVVSDIEMSEMDGYALTRTLRDTPDFSDLYILLHTSLDSAMNSEKSQIAGANAVLTKFSSPELTKCLIEAARTVVAQGEGHHHHHH", "soluble"],
  ["MKNLAIFDLDNTLINTDSDHAWPQYLIKKGLVDAAETEAQNEKFYRDYQNGCLDIDAFLKFHLAPLARYSKEELAEFHREFMAEYIIPHISPMQRMLVQSHQMAGDETLVISSTNEFIITPVCHLFGITNIIGTQLETGSDGRYTGNYIGTPSLKEGKITRLNQWLAERGETLQSYGKTYFYSDSKNDLPLLRLVSEPVAVNPDAELEKEAKEKGWPVLNFK", "soluble"]
]}

From here, focus on the item given below.
**Query** Which soluble on expression in E. coli is listed for MPQTERQLRVWIEGATGRRIGDNFMDGLKDGVILCELINKLQPGSVQKVNDPVQNWHKLENIGNFLRAIKHYGVKPHDIFEANDLFENTNHTQVQSTLIALASQAKTK ?
**Result** soluble

---

Experiment: soluble on expression in E. coli; label from the status in PepcDB or PDB records
observable: soluble on expression in E. coli

Completed entries (count: 8):
{"columns": ["entry sequence", "observed value"],
 "data": [
  ["MSTCKQFLSTKKKSKDSYEFIENLGEGSFAEVVLVAKVGTPNKMFAMKEISIVGKDECFMESIKRECSIQKRLSKSRHLNMIHLFEIRTNPENYQLILSYADGGDLFEKINQHGGLGSDEAHRYFKQLIDGLRFIHEEGVTHRDIKPENLLLTKSGILKIADFGFATMHRFNGAEQMLNAYCGSPPYIAPEVLTGIDYRGPAVDIWSAGVVLIAMIAGAVPWEQADHFDIFQSRYCSFRRNGRKGAWSRMSQQVISLLRKILLQAELRATISMIEEDPWFIYGEEVDAENKENGSQAQYRQESQTSSKPILNFENLLKDLNVSI", "not soluble"],
  ["GSSHHHHHHGSMLNMWKVRELVDKATNVVMNYSEIESKVREATNDDPWGPSGQLMGEIAKATFMYEQFPELMNMLWSRMLKDNKKNWRRVYKSLLLLAYLIRNGSERVVTSAREHIYDLRSLENYHFVDEHGKDQGINIRQKVKELVEFAQDDDRLREERKKAKKNKDKYVGVSSD", "soluble"],
  ["MGSSHHHHHHSSGLVPRGSHMSQFSFTKMHGLGNSYIYVNMFEEQIPEEDLALVAEKVSNINTGIGADGMILICPSDVAPVKMRMFNNDGSEGKSCGNGLRCVAKYAYEHKLVEDTVFTIETLAGIVTAEVTVEEGKVTLAKIDMGAPRLTRAEIPMLGEGETPFIRENFLYNNHRYAFTAVSMGNPHAVIFVDDVEQAPLTTLGPVLETHEMFPERVNVEFIEILNEEEMNFRVWERGSGVTQACGTGACAAVVASILNGKMERGKEITVHLAGGDLMIAWTEEGNVLMKGPAEVICRGVYEYKIEA", "soluble"],
  ["MGSDKIHHHHHHMASHNTTHQMKTLCSSCSLRELCLPVGLLPNELSQLDAVIRQSRRLKKGEYLFCVGEAFTSLFAIRSGFFKTTVASQDGRDQVTGFFMSGELIGMDGICSHVHSCDAVALEDSEVCELPFTHIEELGQNIPSLRTHFFRMMSREIVRDQGVMLLLGNMRAEERIAAFLLNLSQRLYSRGFAANDFILRMSREEIGSYLGLKLETVSRTLSKFHQEGLISVEHKHIKILNLQVLKKMVSGCSHAI", "not soluble"],
  ["MSLNKKRPLKGRFLHITDIHPDPHYKTGSTFDSGCHRKPKKDGKSEGKKATENERGNEDLDDKEFDTLIKNEDLAGKWGTAVSDCDCPMSLVNITFDWLKEEWANEVDFVVWTGDNARHDIDRRIPRTPKEIFDSNRMIVDRMLDAFGRDMPIVPSIGNNDIYPHNVLAAGPSRITEEFLLIWKHFIPSEAAHVFERGAYFSVEVIPDRLAVISLNTLFWYDANTLVDGCRDHSNDPGALEMDWLEVQLNNFRQRGMQVWLTGHVPPHMNHYYDNCYLRYGDLALRYQDTIVGHLFGHMNVDHFFFIDVDELEATSELTSTSSNTTLSDLPLLHGPRLPRPGPGKYTAMGRSGARKLEEELRKDEGHHHHHH", "soluble"],
  ["MSLSSFPDVPGWVKPSVDYLINKNVLSGMPDGTFSPNLEIDRGSSAKVMAKILELPIDQSAKPSFDDSKSHWAAPYIAAIEKAGVIKGDGKGNFNPTGKLTRGAMASMLVHAYKLQEKVTGNPPTVFNDLKDHWSEKYVNILVELGISNGYGDDNWKPDQTITRAETVSLVARTDEGHHHHHH", "not soluble"],
  ["MKRQWALEDFEIGRPLGKGKFGNVYLAREKQSKFILALKVLFKAQLEKAGVEHQLRREVEIQSHLRHPNILRLYGYFHDATRVYLILEYAPLGTVYRELQKLSKFDEQRTATYITELANALSYCHSKRVIHRDIKPENLLLGSAGELKIADFGWSVHAPSSRRTDLCGTLDYLPPEMIEGRMHDEKVDLWSLGVLCYEFLVGKPPFEANTYQETYKRISRVEFTFPDFVTEGARDLISRLLKHNPSQRPMLREVLEHPWITANSSKPSNCQNKESAAAALEHHHHHH", "soluble"],
  ["MKSSPKSLKMRDNLLDGTFVVIDLEATGFDVEKSEVIDLAAVRVEGGIITEKFSTLVYPGYFIPERIKKLTGITNAMLVGQPTIEEVLPEFLEFVGDNIVVGHFVEQDIKFINKYTKQYRGKKFRNPSLCTLKLARKVFPGLKKYSLKEIAENFGFETNGVHRALKDATLTAEIFIKILEELWFKYGIGDYYSLKRLEKGKF", "soluble"]
]}

**Query** Which soluble on expression in E. coli is listed for MSKLMQNPVLHELKKQASFFIKEKIKTARLAVTDVTAEELLTEEVTGSDHSSIDSRSMAAITRVSFEVDQFQRIVKILRQRMVVFDRKEWRGMCNTLSMLNHLLLNGPLSVFSEFQHERAIIEDAIKMEWIDERGFDCGLKVRNIAEKVLRLLEDDMFLKDERERNRKQSIGRITGFGNSSFVIHSETNNGRDGSLMLSNHQTCENDCIADDHPFVENEHKTAQLLLSSST ?
**Result** soluble

**Query** Which soluble on expression in E. coli is listed for MSLTTIDPRSELVDGRRRAGARVDAVGAAALLSAAARVGVVCHVHPDADTIGAGLALALVLDGCGKRVEVSFAAPATLPESLRSLPGCHLLVRPEVMRRDVDLVVTVDIPSVDRLGALGDLTDSGRELLVIDHHASNDLFGTANFIDPSADSTTTMVAEILDAWGKPIDPRVAHCIYAGLATDTGSFRWASVRGYRLAARLVEIGVDNATVSRTLMDSHPFTWLPLLSRVLGSAQLVSEAVGGRGLVYVVVDNREWVAARSEEVESIVDIVRTTQQAEVAAVFKEVEPHRWSVSMRAKTVNLAAVASGFGGGGHRLAAGYTTTGSIDDAVASLRAALGEGHHHHHH ?
**Result** soluble

**Query** Which soluble on expression in E. coli is listed for MLLKTKHFGEINIDESKIIEFKDGIPGFENLKRYVVLYDGDKNSPFRWLQNVDDGELAFAVVNPFMVVKDYDFEIPDEAVESLGIESILDVMVLSIVVVPEDISKMTMNLKAPVIINTKNNKGMQVVLDTDRYSVRHYIIEELRRQEVNVGAGSDEKEK ?
**Result** soluble

**Query** Which soluble on expression in E. coli is listed for MKGRVVIADDEPITRMDIVEMLLEEGYDIVGEASDGFDAIELCKKHKPDLVLMDVKMPLLNGLKAAEVINQDELAACVVLVTAYSGREFVEEAKKAGAMGYVVKPINEKNLLPTLEVAVSKSKEFNEMKSQVKKAQVQLEDRKQIERAKGILMKKEMLSEEEAYNQIRKLSMSKRCSMGEIAKIITMNQ ?
**Result** not soluble
